The reported measurements were obtained from patent US20250027068.

- TGT: pooled human IgG (human IgG1,2,3 and 4)
READOUT: Enzyme Activity Endpoint Assay (purified): IgG (ng/µL)
Numeric only. Scale: ng/µL

## Task // Input: PRT-343 (protein) MTITSVWTKGVTPPTPEDFRENNEDVLHAPYLANQGWYDITKAFDGKDNLLCGAATAGNMLHWWFDQNKEEIERYLKKHPEKQKIIFGNQELFDVKAAIDTKDSQTNSKLFDYFRDKAFPNLSARQLGVMPDLVLDMFINGYYLNLGKTQSTDVNRPYQDKDKRGGIFDAVFTRGDQTTLLTARHDLKNKGLNEISDLIKQELTEGKALALSHTYANVSINHVINLWGADFDAEGELEAIYVTDSDANPSIGMKKYFVGRNAHGKVAISAKKIEGDNIGAQVLGLFTLSTGQDIWQKLS . Output its Enzyme Activity Endpoint Assay (purified): IgG only.
## Result 129
